# EXPERIMENTAL TARGET: LHRH receptor (LHRH binding sites) on EFO-27 human ovarian cancer cells (human)
# ASSAY DETAILS: competition with [125I-Tyr8]BRU-2477 for binding to EFO-27 cells
pEC50: −log10 of the molar value.
READOUT NAME: pEC50

INSERT INTO assay_data (substance, numeric_readout) VALUES
  ('DO3A10CM-Adoa-Sar-His-Trp-Ser-His-Darg-Trp-Bpa4-Pro-azaGly-NH2 (Seq111) (peptide)', 5.48);

----------
# Test system: LHRH binding sites on human ovarian cancer cells (EFO-27);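 also: Cell-associated radioactivity on confluent EFO-27 monolayers in 96-well plates, measured by microplate scintillation counting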
The following compounds are shown together with reported EC50 values.
READOUT NAME: EC50 (nM)

INSERT INTO results (compound, readout_name, numeric_readout) VALUES
  ('CNCC(=O)N[C@@H](CCCNC(=N)N)C(=O)N[C@@H](Cc1c[nH]c2ccccc12)C(=O)N[C@@H](CO)C(=O)N[C@@H](Cc1c[nH]cn1)C(=O)N[C@H](CCCNC(=N)N)C(=O)N[C@@H](Cc1c[nH]c2ccccc12)C(=O)N[C@@H](Cc1ccc(C(=O)c2ccccc2)cc1)C(=O)N1CCC[C@H]1C(=O)NCCOCCOCCNC(=O)CN1CCN(CC(=O)O)CCN(CC(=O)O)CCN(CC(=O)O)CC1 [compound 3043]', 'EC50', 330),
  ('N=C(N)NCCC[C@H](NC(=O)[C@@H](Cc1ccc2ccccc2c1)NC(=O)CN1CCN(CC(=O)O)CCN(CC(=O)O)CCN(CC(=O)O)CC1)C(=O)N[C@@H](Cc1c[nH]c2ccccc12)C(=O)N[C@@H](CO)C(=O)N[C@@H](Cc1c[nH]cn1)C(=O)N[C@H](CCCNC(=N)N)C(=O)N[C@@H](Cc1c[nH]c2ccccc12)C(=O)N[C@@H](Cc1ccc(C(=O)c2ccccc2)cc1)C(=O)N1CCC[C@H]1C(=O)NNC(=O)NCCCCN', 'EC50', 900),
  ('N=C(N)NCCC[C@H](NC(=O)[C@H](N)Cc1ccc2ccccc2c1)C(=O)N[C@@H](Cc1c[nH]c2ccccc12)C(=O)N[C@@H](CO)C(=O)N[C@@H](Cc1c[nH]cn1)C(=O)N[C@H](CCCNC(=N)N)C(=O)N[C@@H](Cc1c[nH]c2ccccc12)C(=O)N[C@@H](Cc1ccc(C(=O)c2ccccc2)cc1)C(=O)N1CCC[C@H]1C(=O)NCCCCNC(=O)CN1CCN(CC(=O)O)CCN(CC(=O)O)CCN(CC(=O)O)CC1 [compound 3042]', 'EC50', 200);

Sourced from patent US20120045393A1
